target: His-tagged human recombinant kinase full-length Akt1 (Homo sapiens (Human)); experiment: Akt1 kinase assay (TR-FRET); conditions: 10 μM ATP; read-out: Akt1, median IC50
Label key: Fulfilled means IC50 under 100 nM; Not fulfilled means IC50 of 100 nM or more.

- Substance Smiles: "CCNC(=O)c1ccn2c(-c3ccccc3)c(-c3ccc(C4(N)CCC4)cc3)nc2c1"
  Class: "Not fulfilled"
- Substance Smiles: "CCc1ccc2nc(-c3ccc(C4(N)CCC4)cc3)c(-c3ccccc3)n2c1"
  Class: "Not fulfilled"
- Substance Smiles: "NC1(c2ccc(-c3nc4c(F)cc(F)cn4c3-c3ccccc3)cc2)CCC1"
  Class: "Fulfilled"
- Substance Smiles: "COc1cc(-c2cn[nH]c2)cn2c(-c3ccccc3)c(-c3ccc(C4(N)CCC4)cc3)nc12"
  Class: "Fulfilled"
- Substance Smiles: "COc1ccn2c(-c3ccccc3)c(-c3ccc(C4(N)CCC4)cc3)nc2c1"
  Class: "Fulfilled"
- Substance Smiles: "C#Cc1ccn2c(-c3ccccc3)c(-c3ccc(C4(N)CCC4)cc3)nc2c1"
  Class: "Not fulfilled"

Here is the next item to consider.
Query block: Problem: For the molecule NC1(c2ccc(-c3nc4ccc(-c5ccccn5)cn4c3-c3ccccc3)cc2)CCC1 , is IC50 under 100 nM?
Result block: Not fulfilled

----------
target: His-tagged human recombinant kinase full-length Akt1 (Homo sapiens (Human), UniProt P31749); experiment: Akt1 kinase assay (TR-FRET); details: 10 μM ATP; read-out: Akt1, median IC50
Sequence (P31749 whole entry): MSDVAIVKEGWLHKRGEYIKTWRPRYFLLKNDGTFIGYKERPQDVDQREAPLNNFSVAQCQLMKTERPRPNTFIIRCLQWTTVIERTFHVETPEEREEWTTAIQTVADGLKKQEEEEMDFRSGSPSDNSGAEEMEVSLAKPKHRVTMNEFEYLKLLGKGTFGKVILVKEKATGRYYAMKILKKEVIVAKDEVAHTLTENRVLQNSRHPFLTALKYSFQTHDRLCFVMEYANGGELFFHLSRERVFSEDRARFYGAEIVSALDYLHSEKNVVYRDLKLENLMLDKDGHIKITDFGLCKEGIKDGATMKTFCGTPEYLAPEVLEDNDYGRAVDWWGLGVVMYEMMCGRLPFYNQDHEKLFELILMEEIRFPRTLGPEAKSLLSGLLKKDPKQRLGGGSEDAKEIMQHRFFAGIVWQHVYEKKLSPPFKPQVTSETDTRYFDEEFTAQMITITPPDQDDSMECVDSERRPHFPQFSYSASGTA
// reported pIC50 per item
# pIC50 = -log10(concentration in molar units)

As a guide, the following entries are already answered.
- Substance Smiles: "CNC(=O)c1ccn2c(-c3ccccc3)c(-c3ccc(C4(N)CCC4)cc3)nc2c1"
  Result: 6.39
- Substance Smiles: "NC1(c2ccc(-c3nc4c(-c5ccc(F)cc5)cccn4c3-c3ccccc3)cc2)CCC1"
  Result: 6.51
- Substance Smiles: "NC1(c2ccc(-c3nc4cc(-c5cc[nH]n5)ccn4c3-c3ccccc3)cc2)CCC1"
  Result: 6.82
- Substance Smiles: "NC1(c2ccc(-c3nc4cc(-c5ccc(F)cc5)ccn4c3-c3ccccc3)cc2)CCC1"
  Result: 6.00
- Substance Smiles: "Cn1cc(-c2ccc3nc(-c4ccc(C5(N)CCC5)cc4)c(-c4ccccc4)n3c2)cn1"
  Result: 6.16

Query block: Entry CN(C)C(=O)COc1ccn2c(-c3ccccc3)c(-c3ccc(C4(N)CCC4)cc3)nc2c1 has what pIC50?
Result block: 6.59

Query block: Entry N#Cc1cc(Cl)c2nc(-c3ccc(C4(N)CCC4)cc3)c(-c3ccccc3)n2c1 has what pIC50?
Result block: 6.85

Query block: Entry COCCNC(=O)c1ccc2nc(-c3ccc(C4(N)CCC4)cc3)c(-c3ccccc3)n2c1 has what pIC50?
Result block: 6.34

Query block: Entry CON(C)C(=O)c1ccn2c(-c3ccccc3)c(-c3ccc(C4(N)CCC4)cc3)nc2c1 has what pIC50?
Result block: 5.67

Query block: Entry COC(=O)CCc1ccn2c(-c3ccccc3)c(-c3ccc(C4(N)CCC4)cc3)nc2c1 has what pIC50?
Result block: 5.46

Query block: Entry NC1(c2ccc(-c3nc4cc(-c5cccnc5)ccn4c3-c3ccccc3)cc2)CCC1 has what pIC50?
Result block: 6.89

Query block: Entry CNC(=O)Nc1ccn2c(-c3ccccc3)c(-c3ccc(C4(N)CCC4)cc3)nc2c1 has what pIC50?
Result block: 6.23

Query block: Entry COC(=O)COc1ccn2c(-c3ccccc3)c(-c3ccc(C4(N)CCC4)cc3)nc2c1 has what pIC50?
Result block: 6.80

Query block: Entry C=Cc1ccc2nc(-c3ccc(C4(N)CCC4)cc3)c(-c3ccccc3)n2c1 has what pIC50?
Result block: 6.52
